system: Vero E6; assay: cell viability relative to DMSO; higher = less toxic; settings: 72 h; 1 nM
Below, each entry is listed alongside its reported cell viability.
Give just the numeric value; % need not be written.

The following molecules have reported results that may help.
CCCC[C@@H](C=O)NC(=O)[C@H](CC(C)C)NC(=O)OCc1ccccc1 ... 97.5
CC1(C)S[C@@H]2[C@H](NC(=O)C(C(=O)O)c3ccccc3)C(=O)N2[C@H]1C(=O)O (some centres undefined) ... 102
CS(=O)(=O)N(Cc1ccco1)C[C@@H](O)Cn1c2ccccc2c2ccccc21 ... 99
COC(=O)c1sccc1S(=O)(=O)Nc1ccc(Nc2ccccc2)cc1OC ... 91.9
COc1cc(NS(C)(=O)=O)ccc1Nc1c2ccccc2nc2ccccc12 ... 93
CCC(C/C=C/c1ccccc1)(c1ccccc1)N(C)CC1CC1 (centres undefined) ... 98.8
NNC(=O)CSc1nc2scc(-c3ccccc3)c2c(=O)n1-c1ccccc1 ... 94.1
COc1cc2c(NC3CCN(C4CCCCC4)CC3)nc(N3CCCN(C(C)C)CC3)nc2cc1OCCCN1CCCCC1 ... 92.2

Consider the record given below.
Noted for COc1cccc(-c2cc(NCc3ccc4c(c3)OCO4)nc(N)n2)c1 : its cell viability reads 102

###

Below, each entry is listed alongside its reported cell viability.
test system: Calu-3; assay: cell viability relative to DMSO; higher = less toxic; details: 72 h; 10 nM
Give just the numeric value; % need not be written.

The following molecules have reported results that may help.
COc1cc(NS(C)(=O)=O)ccc1Nc1c2ccccc2nc2ccccc12 [amsacrine] ... 93.7
C[S+]([O-])CCCCN=C=S (centres undefined) [sulforaphane] ... 91
COc1ccc2ccc(=O)oc2c1CC=C(C)C [osthol] ... 98.2
CC(C)[C@](O)(c1ccc2cc(OC(F)F)c(OC(F)F)cc2c1)c1c[nH]nn1 [VT-464] ... 101
CC(C)(C)OC(=O)c1ncn2c1[C@@H]1CCCN1C(=O)c1c(Br)cccc1-2 [bretazenil] ... 92.9

Noted for COc1cc2c(cc1OC)C1CC(=O)C(CC(C)C)CN1CC2 (centres undefined) [tetrabenazine] : its cell viability reads 103

Noted for CCC(C(=O)O)c1ccc(CC(C)C)cc1 (centres undefined) [butibufen] : its cell viability reads 105

Noted for O=c1c(-c2ccc(O)cc2)coc2c([C@@H]3O[C@H](CO)[C@@H](O)[C@H](O)[C@H]3O)c(O)ccc12 [puerarin] : its cell viability reads 92.3

Noted for COc1cccc(OCCCN)c1-c1cc(Nc2cnc(C#N)cn2)n[nH]1 : its cell viability reads 99.9

###

Below, each entry is listed alongside its reported relative viability EC50.
system: U2OS; experiment: relative viability EC50 (midpoint between 100% and the lowest measured viability); higher = less toxic; conditions: 72 h

O=C(O)C(=O)c1cn(Cc2ccccc2)c2ccc(-c3ccc(OC(F)(F)F)cc3)cc12 [tiplaxtinin] ... > 10 µM
COc1ccc2ccc(=O)oc2c1CC=C(C)C [osthol] ... > 10 µM
OB1OCc2cc(Cl)ccc21 [AN2718] ... > 10 µM
C#Cc1cccc(Nc2ncnc3cc(OC)c(OCCCCCCC(=O)NO)cc23)c1 [CUDC-101] ... 1.41 µM

Consider the record given below.
Noted for O=C(O)c1cc(=O)c2ccccc2[nH]1 [kynurenic-acid] : its relative viability EC50 reads > 10 µM

###

tested on: U2OS; assay: cell viability relative to DMSO; higher = less toxic; conditions: 72 h; 100 nM
readoutKind: cell viability (%)
Give just the numeric value; % need not be written.

CCc1cc2c(cc1N1CCC(N3CCOCC3)CC1)C(C)(C)c1[nH]c3cc(C#N)ccc3c1C2=O ... 102
CN1CCN(C2=Cc3ccccc3Oc3ccc(Cl)cc32)CC1 ... 96.7
COc1cc2c(NC3CCN(C4CCCCC4)CC3)nc(N3CCCN(C(C)C)CC3)nc2cc1OCCCN1CCCCC1 ... 107

Noted for Cc1cc(/C=C/C#N)cc(C)c1Nc1ccnc(Nc2ccc(C#N)cc2)n1 : its cell viability reads 99.6

Noted for CC(C)(C)c1ccc(CN2CCN(C(c3ccccc3)c3ccc(Cl)cc3)CC2)cc1 (centres undefined) : its cell viability reads 96.8

Noted for C[C@]12CCC(=O)C(O)=C1CC[C@@H]1[C@@H]2CC[C@]2(C)C(=O)CC[C@@H]12 : its cell viability reads 102

Noted for CC(C)COc1ccc(CNC(=O)N(Cc2ccc(F)cc2)C2CCN(C)CC2)cc1 : its cell viability reads 92.2

Noted for CC(C)(C)c1ccc(/C=C/C(=O)Nc2ccc3c(c2)OCCO3)cc1 : its cell viability reads 98.2

Noted for COc1cccc(OCCCN)c1-c1cc(Nc2cnc(C#N)cn2)n[nH]1 : its cell viability reads 5.2

###

test system: A549-ACE2; experiment: drug-induced phospholipidosis relative to tamoxifen; higher = more phospholipidosis; settings: 6.66667 µM; 48 h
Lab note: anything with drug-induced phospholipidosis at or over 70% counts as Yes; the rest go in No.

Reference set (4 entries):
COc1cc2c(NC3CCN(C4CCCCC4)CC3)nc(N3CCCN(C(C)C)CC3)nc2cc1OCCCN1CCCCC1 ... No
OC(c1cc(C(F)(F)F)nc2c(C(F)(F)F)cccc12)C1CCCCN1 (stereo not given) ... Yes
COc1ccc(/C=C/C(=O)/C=C(O)/C=C/c2ccc(OC)c(OC)c2)cc1OC ... No
NC(=O)c1cnc(N[C@@H]2CCCC[C@@H]2N)nc1Nc1cccc(-n2nccn2)c1 ... Yes

Challenge: Confirm if drug-induced phospholipidosis reported for the compound FC(F)(F)c1cc(CO[C@H]2CCCN[C@H]2c2ccccc2)cc(C(F)(F)F)c1 is 70% or above.
Response given: Yes

###

Below, each entry is listed alongside its reported cell viability.
system: Vero E6; assay: cell viability relative to DMSO; higher = less toxic; conditions: 72 h; 1 nM
Give just the numeric value; % need not be written.

Oc1ccc(C2CNCCc3c2cc(O)c(O)c3Cl)cc1 (stereo not given) ... 101
O=C(Nc1ccncc1)C(=O)c1cn(Cc2ccc(Cl)cc2)c2ccccc12 ... 75.1
CCCn1c(=O)[nH]c(=O)c2nc[nH]c21 ... 97.6

Noted for C1CCC(/N=C(\NC23CC4CC(CC(C4)C2)C3)N2CCOCC2)CC1 : its cell viability reads 88.3

Noted for COc1ccc(-c2oc3c(CC=C(C)C)c(O)cc(O)c3c(=O)c2O)cc1 : its cell viability reads 92.9

Noted for C[C@H]1O[C@@H](O[C@H]2CC[C@@]3(C)[C@H](CC[C@@H]4[C@@H]3C[C@@H](O)[C@]3(C)[C@@H](C5=CC(=O)OC5)CC[C@]43O)C2)C[C@H](O)[C@@H]1O[C@H]1C[C@H](O)[C@H](O[C@H]2C[C@H](O)[C@H](O[C@@H]3O[C@H](CO)[C@@H](O)[C@H](O)[C@H]3O)[C@@H](C)O2)[C@@H](C)O1 [deslanoside] : its cell viability reads 96.7

Noted for CO[C@H]1O[C@@H]2O[C@@]3(C)CC[C@H]4[C@H](C)CC[C@@H]([C@H]1C)[C@@]24OO3 : its cell viability reads 103

Noted for CC(C(=O)O)c1ccc2c(c1)[nH]c1ccc(Cl)cc12 (stereo not given) : its cell viability reads 107

###

test system: HepG2; test: cell viability relative to DMSO; higher = less toxic; details: 72 h; 10000 nM
readoutKind: cell viability (%)
Give just the numeric value; % need not be written.

The following compounds have reported results that may help.
O=C(CCCCC(=O)Nc1c(I)cc(I)c(C(=O)O)c1I)Nc1c(I)cc(I)c(C(=O)O)c1I [iodipamide] ... 103
COc1ccc(/C=C/C(=O)/C=C(O)/C=C/c2ccc(OC)c(OC)c2)cc1OC [ASC-J9] ... 55.8
C#Cc1cccc(Nc2ncnc3cc(OC)c(OCCCCCCC(=O)NO)cc23)c1 [CUDC-101] ... 0.1

Noted for c1ccc2c(CCNc3ccc(Nc4ccncc4)cc3)c[nH]c2c1 [serdemetan] : its cell viability reads 45.6

Noted for CS(=O)(=O)N(Cc1ccco1)C[C@@H](O)Cn1c2ccccc2c2ccccc21 [KL-001] : its cell viability reads 106

Noted for NC(=O)c1ccc2[nH]ccc2c1 [SD-169] : its cell viability reads 83.4

Noted for N#Cc1c(Oc2ccc(F)c(NC(=O)Cc3cccc(C(F)(F)F)c3)c2)ccc2nc(NC(=O)C3CC3)sc12 [TAK-632] : its cell viability reads 17.2

Noted for O=c1c(-c2ccc(O)cc2)coc2c([C@@H]3O[C@H](CO)[C@@H](O)[C@H](O)[C@H]3O)c(O)ccc12 [kakonein] : its cell viability reads 93.5

Noted for Cc1ncc(-c2ccnc(Nc3ccc(S(C)(=O)=O)cc3)n2)n1C(C)C [AZD5438] : its cell viability reads 6.7

###

system: Calu-3; assay: cell viability relative to DMSO; higher = less toxic; settings: 72 h; 100 nM
Below, each entry is listed alongside its reported cell viability.
Give just the numeric value; % need not be written.

The following compounds have reported results that may help.
Cc1ccc2c(c1)C(=O)[C@]1(O)CCN(c3ccccc3)C1=N2 (racemic) [blebbistatin-(+/-)] ... 95.5
O=c1c(-c2ccc(O)cc2)coc2c([C@@H]3O[C@H](CO)[C@@H](O)[C@H](O)[C@H]3O)c(O)ccc12 ... 111

Summary: NC(=O)c1ccc2[nH]ccc2c1 , Calu-3, cell viability = 98.5

Summary: Cc1cnc(-c2cnc(NCCNc3ccc(C#N)cn3)nc2-c2ccc(Cl)cc2Cl)[nH]1 , Calu-3, cell viability = 99.1

Summary: Nc1ccc(/N=N/c2ccccc2)c(N)n1 , Calu-3, cell viability = 88.1

Summary: CCOc1nc2cccc(C(=O)O)c2n1Cc1ccc(-c2ccccc2-c2noc(=O)[nH]2)cc1 , Calu-3, cell viability = 96

Summary: C[C@]12CC[C@@H]3c4ccc(O)cc4C[C@@H](CCCCCCCCC[S+]([O-])CCCC(F)(F)C(F)(F)F)[C@H]3[C@@H]1CC[C@@H]2O (stereo not given in full) , Calu-3, cell viability = 104

Summary: Cc1cc(O)c(-c2ccc([C@@H](C)CN)cc2)c2c1[nH]c(=O)c1sccc12 , Calu-3, cell viability = 81.7

Summary: CC(=O)N(CC(O)CO)c1c(I)c(C(=O)NCCO)c(I)c(C(=O)NCC(O)CO)c1I (stereo not given) , Calu-3, cell viability = 99.7

Summary: CCC(=O)OCC(=O)[C@@]1(OC(=O)CC)[C@H](C)C[C@H]2[C@H]3[C@H]([C@@H](O)C[C@@]21C)[C@@]1(C)C=CC(=O)C=C1C[C@H]3Cl [alclometasone-dipropionate] , Calu-3, cell viability = 90.2
